Hey, just so you know, these numbers are from ChEMBL document CHEMBL1130393.

# Test system: MDA-N
# method.summary: In vitro antitumor activity against MDA-N tumor cell lines
# Assay type: functional
# experimental.parameters: Homo sapiens
endpoint: GI50 (nM)
Record the value in nM, omitting the unit from your answer.

Item `Cc1cccc(-c2cc(O)c3c(C)ccnc3n2)c1` has what recorded GI50?
11

Can you handle `Cc1cc(C)c2c(O)cc(-c3cccc4ccccc34)nc2n1` next?
234

Can you handle `Cc1ccnc2nc(-c3cccc(Cl)c3)cc(O)c12` next?
11.8

---

# System: CAKI-1
# method.summary: In vitro antitumor activity against CAKI-1 tumor cell lines
# Format: functional
# experimental.parameters: Homo sapiens
Would you kindly list GI50 for each of these molecules?
Record the value in nM, omitting the unit from your answer.

Item `Cc1cc(C)c2c(O)cc(-c3ccc4ccccc4c3)nc2n1` has what recorded GI50?
51300

Can you handle `Cc1ccnc2nc(-c3cccc4ccccc34)cc(O)c12` next?
12

Can you handle `Cc1ccc2c(O)cc(-c3ccc4ccccc4c3)nc2n1` next?
5370

Can you handle `Cc1cnc2[nH]c(-c3cccc(F)c3)cc(=O)c2c1` next?
28.2

Can you handle `Cc1cccc(-c2cc(O)c3cc(C)cnc3n2)c1` next?
437

Can you handle `Cc1ccnc2nc(-c3cccc(Cl)c3)cc(O)c12` next?
33.1

Can you handle `Oc1cc(-c2cccc3ccccc23)nc2ncccc12` next?
15.1

Can you handle `Oc1cc(-c2ccc3ccccc3c2)nc2ncccc12` next?
5620
